Test system: ACHN cell line
Experiment: drug screen of the SelleckChem kinase inhibitor library with and without 5 uM SU-329, Cell-Titer Glo after 5 days
Format: cell-based
Details: kinase inhibitor at 200 nM with and without 5 uM SU329; ACHN cell line; 5 days; Cell-Titer Glo
MEASURED ATTRIBUTE: log2fc

> print(dat)
                                   compound   tested.target  assay.result
1  CCS(=O)(=O)Nc1ccc2c(c1)/C(=C(/Nc1ccc(CN3CCCCC3)cc1)c1ccccc1)C(=O)N2 [Hesperadin]  ACHN cell line        0.1006
2  Cl.Cl.NC1(c2ccc(-c3nc4ccn5c(=O)[nH]nc5c4cc3-c3ccccc3)cc2)CCC1 [MK-2206 2HCl]  ACHN cell line       −0.1575
3  O=C(c1cccc(Cl)c1F)N1CCN(Cc2cccc(Nc3nccs3)n2)CC1 [MK-8745]  ACHN cell line       −0.3779
4  O=C(Nc1ccc(OC(F)(F)F)cc1)c1sccc1NCc1ccnc2ccccc12 [OSI-930]  ACHN cell line       −0.2273

* * *

Target: LKB1 (Homo sapiens, UniProt Q15831+Q7RTN6)
Sequence (Q15831 whole entry): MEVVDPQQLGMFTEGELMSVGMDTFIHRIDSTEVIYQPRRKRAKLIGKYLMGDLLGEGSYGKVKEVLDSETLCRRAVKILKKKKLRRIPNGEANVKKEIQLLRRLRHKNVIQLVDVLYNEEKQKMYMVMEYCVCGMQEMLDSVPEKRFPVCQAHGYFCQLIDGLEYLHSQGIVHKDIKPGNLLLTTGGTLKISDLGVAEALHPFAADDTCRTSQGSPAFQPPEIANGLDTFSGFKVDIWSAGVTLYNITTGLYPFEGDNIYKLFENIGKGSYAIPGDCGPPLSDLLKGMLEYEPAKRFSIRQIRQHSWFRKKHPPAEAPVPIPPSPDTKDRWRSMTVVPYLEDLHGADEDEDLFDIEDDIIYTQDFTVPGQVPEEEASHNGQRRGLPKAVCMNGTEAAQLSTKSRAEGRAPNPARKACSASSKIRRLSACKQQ
Sequence (Q7RTN6 whole entry): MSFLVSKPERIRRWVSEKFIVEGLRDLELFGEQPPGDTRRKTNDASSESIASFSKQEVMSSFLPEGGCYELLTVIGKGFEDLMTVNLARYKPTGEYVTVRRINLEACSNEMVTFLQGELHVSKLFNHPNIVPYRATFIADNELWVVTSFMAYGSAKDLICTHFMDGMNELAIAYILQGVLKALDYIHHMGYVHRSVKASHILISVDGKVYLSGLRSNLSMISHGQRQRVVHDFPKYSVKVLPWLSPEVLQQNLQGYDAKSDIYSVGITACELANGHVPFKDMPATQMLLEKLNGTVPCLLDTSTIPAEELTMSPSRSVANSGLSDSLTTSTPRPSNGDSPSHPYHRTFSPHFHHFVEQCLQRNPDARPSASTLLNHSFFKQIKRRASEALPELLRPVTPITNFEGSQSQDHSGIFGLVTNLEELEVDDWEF
Sequence (Q9Y376 whole entry partner): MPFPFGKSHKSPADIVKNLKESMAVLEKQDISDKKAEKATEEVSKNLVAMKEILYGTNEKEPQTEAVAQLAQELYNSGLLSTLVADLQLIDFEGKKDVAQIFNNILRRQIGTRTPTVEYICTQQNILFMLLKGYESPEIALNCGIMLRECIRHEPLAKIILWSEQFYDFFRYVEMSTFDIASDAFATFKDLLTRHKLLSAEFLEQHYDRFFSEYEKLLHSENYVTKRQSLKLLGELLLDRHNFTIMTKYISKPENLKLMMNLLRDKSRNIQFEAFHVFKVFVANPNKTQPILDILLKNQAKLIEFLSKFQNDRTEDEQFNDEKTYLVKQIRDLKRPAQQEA
Assay: in vitro LKB1 functional activity
Type: biochemical
Details: APA analogs
MEASURED ATTRIBUTE: LKB1 % Act. Increase

> print(dat)
                                    molecule     assay.result
 1  COC(=O)c1ccc(NC(=O)c2nc(-c3ccc(C)cc3)cnc2N)cc1F [SU20668-0307]     D (D=<1000%)
 2  CC(=O)NS(=O)(=O)c1ccc(NC(=O)c2nc(-c3cccc(N)c3)cnc2N)cc1 [SU20668-0350]     D (D=<1000%)
 3  Cc1ccc(-c2cnc(N)c(C(=O)Nc3ccc(C(=O)OC(C)(C)C)c(F)c3)n2)cc1 [SU20668-0308]  C (C=199-1000%)
 4  CCOP(C)(=O)CS(=O)(=O)c1ccc(NC(=O)c2nc(-c3ccc(C)cc3)cnc2N)cc1 (centres unmarked) [SU20668-0472]     A (A=>4000%)
 5  COP(=O)(CS(=O)(=O)c1ccc(NC(=O)c2nc(-c3cc(F)ccc3Cl)cnc2N)cc1)OC [SU20668-0449]  C (C=199-1000%)
 6  CC(=O)NS(=O)(=O)c1ccc(NC(=O)c2nc(-c3ccc(S(N)(=O)=O)cc3)cnc2N)cc1 [SU20668-0351]  C (C=199-1000%)
 7  CCO[P@](=O)(CC)CS(=O)(=O)c1ccc(NC(=O)c2nc(-c3ccc(C)cc3)cnc2N)cc1 [SU20668-0521]     A (A=>4000%)
 8  CCOP(C)(=O)COc1ccc(NC(=O)c2nc(-c3ccc(C)cc3)cnc2N)cc1 (centres unmarked) [SU20668-0476]     D (D=<1000%)
 9  Cc1ccc(-c2cnc(N)c(C(=O)Nc3ccc(S(=O)(=O)NC4(C)COC4)cc3)n2)cc1 [SU20668-0510]  B (B=399-2000%)
10  COP(=O)(CS(=O)(=O)c1ccc(NC(=O)c2nc(-c3ccc(C)cc3C)cnc2N)cc1)OC [SU20668-0450]     D (D=<1000%)
11  CCOP(=O)(CS(=O)(=O)c1ccc(NC(=O)c2nc(-c3ccc(C)cc3)cnc2N)cc1F)OCC [SU20668-0482]     D (D=<1000%)
12  CCOP(=O)(NS(=O)(=O)c1ccc(NC(=O)c2nc(-c3ccc(C)cc3)cnc2N)cc1)OCC [SU20668-0475]  B (B=399-2000%)
13  CC(=O)NS(=O)(=O)c1ccc(NC(=O)c2nc(-c3ccc(CO)cc3)cnc2N)cc1 [SU20668-0348]  C (C=199-1000%)
14  Cc1ccc(-c2cnc(N)c(C(=O)Nc3ccc(S(=O)(=O)CP(=O)(OC(C)C)OC(C)C)cc3)n2)cc1 [SU20668-0484]     D (D=<1000%)
15  Cc1ccc(-c2cnc(N)c(C(=O)Nc3ccc(NS(C)(=O)=O)cc3)n2)cc1 [SU20668-0281]     D (D=<1000%)
16  Cc1ccc(-c2cnc(N)c(C(=O)Nc3ccc(S(=O)(=O)NC(=O)CCc4ccccc4)cc3)n2)cc1 [SU20668-0328]     D (D=<1000%)
17  Cc1ccc(-c2cnc(N)c(C(=O)Nc3ccc(C(=O)O)nc3)n2)cc1 [SU20668-0300]     D (D=<1000%)
18  CCP(=O)(CS(=O)(=O)c1ccc(NC(=O)c2nc(-c3ccc(C)cc3)cnc2N)cc1)OC (centres unmarked) [SU20668-0514]  B (B=399-2000%)
19  CC(=O)NS(=O)(=O)c1ccc(NC(=O)c2nc(-c3ccc(Cl)cc3)cnc2N)cc1 [SU20668-0391]     D (D=<1000%)
20  Cc1ccc(-c2cnc(N)c(C(=O)Nc3ccc(S(=O)(=O)NC(=O)C(C)C)cc3)n2)cc1 [SU20668-0327]     D (D=<1000%)
21  Cc1ccc(-c2cnc(N)c(C(=O)Nc3ccc(S(=O)(=O)NC4COC4)cc3)n2)cc1 [SU20668-0468]  C (C=199-1000%)
22  Cc1ccc(-c2cnc(N)c(C(=O)Nc3cnc(S(C)(=O)=O)nc3)n2)cc1 [SU20668-0303]     D (D=<1000%)
23  CC(=O)NS(=O)(=O)c1ccc(NC(=O)c2nc(-c3ccc(OC(F)(F)F)cc3)cnc2N)cc1 [SU20668-0392]     D (D=<1000%)
